// reported Activity (%)* for each item listed
- target-of-assay: EGLN1
- procedure-details: cell-based or functional assay
Where no end group is shown, it is not given here.
readout-type: Activity (%)*

INSERT INTO assay_data (binder, measured_result) VALUES
  ('DTDLDLEARAPYIPADDDFQ [DTDLDLEARApYIPADDDFQ]', '79%'),
  ('DTDLDGEALAPYIPADDDFQ [DTDLDGEALApYIPADDDFQ]', '37.3%'),
  ('DTDLDLEAGAPYIPADDDFQ [DTDLDLEAGApYIPADDDFQ]', '11.3%'),
  ('DTDLDAEAVAPYIPADDDFQ [DTDLDAEAVApYIPADDDFQ]', '34%'),
  ('DTDLDIEANAPYIPADDDFQ [DTDLDIEANApYIPADDDFQ]', '33.2%'),
  ('DTDLDLEMLEPYIPMDDDFQ (not fully specified; printed as DTDLDLEMLEpYIPMDDDFQ) [DTDLDLEMLEpYIPMDDDFQ]', '2.27%'),
  ('DTDLDLEASAPYIPADDDFQ [DTDLDLEASApYIPADDDFQ]', '29.6%'),
  ('DTDLDAEASAPYIPADDDFQ [DTDLDAEASApYIPADDDFQ]', '10.5%'),
  ('DTDLDHEALAPYIPADDDFQ [DTDLDHEALApYIPADDDFQ]', '23.4%'),
  ('DTDLDLEMLKPYIPMDDDFQ (not fully specified; printed as DTDLDLEMLKpYIPMDDDFQ) [DTDLDLEMLKpYIPMDDDFQ]', '68.7%'),
  ('DTDLDLEAAAPYIPADDDFQ [DTDLDLEAAApYIPADDDFQ]', '36.1%'),
  ('DTDLDTEAIAPYIPADDDFQ (not fully specified; printed as DTDLDTEAIApYIPADDDFQ) [DTDLDTEAIApYIPADDDFQ]', '23.7%'),
  ('DTDLDLEAVAPYIPADDDFQ (not fully specified; printed as DTDLDLEAVApYIPADDDFQ) [DTDLDLEAVApYIPADDDFQ]', '99.2%'),
  ('DTDLDMEALAPYIPADDDFQ (not fully specified; printed as DTDLDMEALApYIPADDDFQ) [DTDLDMEALApYIPADDDFQ]', '86.4%'),
  ('DTDLDLEMLFPYIPMDDDFQ (not fully specified; printed as DTDLDLEMLFpYIPMDDDFQ) [DTDLDLEMLFpYIPMDDDFQ]', '4.16%'),
  ('DTDLDCEALAPYIPADDDFQ [DTDLDCEALApYIPADDDFQ]', '44.7%'),
  ('DTDLDLEMLAPYIPMDDDFQ [Control peptide DTD20, DTDLDLEMLApYIPMDDDFQ]', '100%'),
  ('DTDLDREALAPYIPADDDFQ (not fully specified; printed as DTDLDREALApYIPADDDFQ) [DTDLDREALApYIPADDDFQ]', '19.9%'),
  ('DTDLDVEALAPYIPADDDFQ (not fully specified; printed as DTDLDVEALApYIPADDDFQ) [DTDLDVEALApYIPADDDFQ]', '31.5%'),
  ('DTDLDLEMLRPYIPMDDDFQ (not fully specified; printed as DTDLDLEMLRpYIPMDDDFQ) [DTDLDLEMLRpYIPMDDDFQ]', '19.8%'),
  ('DTDLDLEATAPYIPADDDFQ [DTDLDLEATApYIPADDDFQ]', '68.2%'),
  ('DTDLDLEAWAPYIPADDDFQ (not fully specified; printed as DTDLDLEAWApYIPADDDFQ) [DTDLDLEAWApYIPADDDFQ]', '50.4%');
